# Target Or System: androgen receptor (Homo sapiens, UniProt P10275)
# Sequence (P10275 1-920 Q868H): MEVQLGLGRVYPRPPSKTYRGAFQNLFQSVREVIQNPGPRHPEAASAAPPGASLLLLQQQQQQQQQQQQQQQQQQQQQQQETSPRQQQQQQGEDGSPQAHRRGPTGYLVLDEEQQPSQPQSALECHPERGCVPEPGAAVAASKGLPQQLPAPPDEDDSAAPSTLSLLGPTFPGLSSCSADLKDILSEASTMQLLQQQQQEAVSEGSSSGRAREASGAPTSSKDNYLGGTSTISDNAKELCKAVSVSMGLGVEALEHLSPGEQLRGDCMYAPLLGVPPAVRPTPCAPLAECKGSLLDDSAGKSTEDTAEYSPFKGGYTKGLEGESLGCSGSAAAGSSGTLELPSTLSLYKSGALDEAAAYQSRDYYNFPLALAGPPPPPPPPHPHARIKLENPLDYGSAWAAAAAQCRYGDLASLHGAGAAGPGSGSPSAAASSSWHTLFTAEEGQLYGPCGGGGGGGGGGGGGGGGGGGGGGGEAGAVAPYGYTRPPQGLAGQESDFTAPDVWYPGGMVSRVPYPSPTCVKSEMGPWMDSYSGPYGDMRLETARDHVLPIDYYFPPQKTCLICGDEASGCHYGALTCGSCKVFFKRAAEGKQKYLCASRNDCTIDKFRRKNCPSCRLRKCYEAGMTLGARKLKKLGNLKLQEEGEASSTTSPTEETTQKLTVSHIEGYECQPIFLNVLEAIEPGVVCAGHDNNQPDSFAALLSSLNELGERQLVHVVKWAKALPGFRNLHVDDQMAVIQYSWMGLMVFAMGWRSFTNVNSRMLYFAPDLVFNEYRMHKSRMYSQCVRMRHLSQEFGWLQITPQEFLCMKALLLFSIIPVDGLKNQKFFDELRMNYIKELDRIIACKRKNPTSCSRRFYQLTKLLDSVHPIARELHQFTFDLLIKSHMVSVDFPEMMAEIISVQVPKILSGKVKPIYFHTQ
# Method Description: AR Antagonist Cell Assay (MMTV-luciferase reporter, DHT-stimulated)
# Condition Summary: MDA-MB453-MMTV clone 54-19 cells; antagonism of 100 pM DHT, 17 hr, luciferase readout
pIC50: −log10 of the molar value.
Reported Endpoint: pIC50

compound="C#Cc1ccc(NS(=O)(=O)c2ccc(Cc3ccc4[nH]c(=O)cc(C(F)(F)F)c4c3)cc2)cc1 [Example 15]" target_or_system="androgen receptor (Homo sapiens, UniProt P10275)" recorded_value=5.55
compound="O=c1cc(C(F)(F)F)c2cc(Cc3ccc(S(=O)(=O)NCCCn4ccnc4)cc3)ccc2o1 [Example 174]" target_or_system="androgen receptor (Homo sapiens, UniProt P10275)" recorded_value=5.26
compound="CSc1n[nH]c(NS(=O)(=O)c2ccc(Cc3ccc4oc(=O)cc(C(F)(F)F)c4c3)cc2)c1C#N [Example 138]" target_or_system="androgen receptor (Homo sapiens, UniProt P10275)" recorded_value=5.72
compound="CSc1n[nH]c(NS(=O)(=O)c2ccc(Cc3ccc4[nH]c(=O)cc(C(F)(F)F)c4c3)cc2)c1C#N [Example 32]" target_or_system="androgen receptor (Homo sapiens, UniProt P10275)" recorded_value=5.10
compound="O=c1cc(C(F)(F)F)c2cc(Cc3ccc(S(=O)(=O)Nc4cccc(OC(F)F)c4)cc3)ccc2o1 [Example 143]" target_or_system="androgen receptor (Homo sapiens, UniProt P10275)" recorded_value=5.55

(1) CC(=O)c1cccc(NS(=O)(=O)c2ccc(Cc3ccc4oc(=O)cc(C(F)(F)F)c4c3)cc2)c1 [Example 129]
(2) Cc1ccc(F)cc1CNS(=O)(=O)c1ccc(Cc2ccc3oc(=O)cc(C(F)(F)F)c3c2)cc1 [Example 185]
For the two items 1 and 2 , which reports the higher pIC50 value? Write down the label of the entry you select. 1
(1: 5.67, 2: 5.39)
